The reported measurements were obtained from paper PMC4585835.

target: human thrombin (Homo sapiens, UniProt P00734); construct: purchased National Institute for the Control of Pharmaceutical and Biological Products (Beijing, China); experiment: Degradation mediated by human thrombin (HPLC); type: in vitro ADME; details: human thrombin (69 NIH/mL) in Tris-HCl buffer, pH 8; 69 NIH/ml human thrombin, peptide 0.41 mM, 37 °C, 5 h; read-out: peptide remained after reaction with human thrombin
ASSAY READOUT: remaining at 5 h, 0.41 mM (%)
Write the number in % without appending the unit.

Requested field: remaining at 5 h, 0.41 mM. Item: CC[C@H](C)[C@H](NC(=O)[C@H](CCC(=O)O)NC(=O)[C@H](CCC(=O)O)NC(=O)[C@H](Cc1ccccc1)NC(=O)[C@H](CC(=O)O)NC(=O)CNC(=O)[C@H](CC(N)=O)NC(=O)CNC(=O)CNC(=O)CNC(=O)CNC(=O)[C@@H]1CCCN1C(=O)[C@H](CCCNC(=N)N)NC(=O)[C@@H]1CCCN1C(=O)[C@H](N)Cc1ccccc1)C(=O)N1CCC[C@H]1C(=O)N[C@@H](CCC(=O)O)C(=O)N[C@@H](CCC(=O)O)C(=O)N[C@@H](Cc1ccc(O)cc1)C(=O)N[C@@H](CC(C)C)C(=O)O [Hirulog-1, reference compound] 23
